# subject.of.test: Muscarinic acetylcholine receptor M1 (Homo sapiens) (UniProt P11229)
# Sequence (P11229 whole entry): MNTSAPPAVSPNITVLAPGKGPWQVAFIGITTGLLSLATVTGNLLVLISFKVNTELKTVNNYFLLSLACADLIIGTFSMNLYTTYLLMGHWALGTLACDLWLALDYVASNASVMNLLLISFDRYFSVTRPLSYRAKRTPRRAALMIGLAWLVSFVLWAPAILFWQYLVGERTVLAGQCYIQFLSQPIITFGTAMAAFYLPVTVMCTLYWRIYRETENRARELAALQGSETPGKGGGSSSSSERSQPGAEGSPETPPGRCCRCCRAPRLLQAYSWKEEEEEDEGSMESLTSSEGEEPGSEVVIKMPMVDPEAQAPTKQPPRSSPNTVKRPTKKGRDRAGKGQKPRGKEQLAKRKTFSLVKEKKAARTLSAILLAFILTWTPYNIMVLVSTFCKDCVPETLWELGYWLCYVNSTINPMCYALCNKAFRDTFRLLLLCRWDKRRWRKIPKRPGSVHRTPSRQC
# method.notes: Cooperativity with acetylcholine at human muscarinic acetylcholine receptor M1
measured.metric: Cooperativity

Ask: Which value of Cooperativity has been reported for O=C1C[C@@H]2OCC=C3C[N+]4(Cc5ccc(-c6ccccc6)cc5)CC[C@]56c7ccccc7N1[C@H]5[C@H]2[C@H]3C[C@@H]64 (stereo not given in full) in the records?
Result: < 0.2

Ask: Ok, now O=C1C[C@@H]2OCC=C3C[N+]4(CC5CCCCC5)CC[C@]56c7ccccc7N1[C@H]5[C@H]2[C@H]3C[C@@H]64 (stereo not given in full)
Result: < 0.2

Ask: Would you kindly repeat that for O=C1C[C@@H]2OCC=C3C[N+]4(CCc5ccccc5)CC[C@]56c7ccccc7N1[C@H]5[C@H]2[C@H]3C[C@@H]64 (stereo not given in full) ?
Result: < 0.2

Ask: Try the compound C#CC[N+]12CC[C@@]34c5ccccc5N5C(=O)C[C@@H]6OCC=C(C1)[C@H](C[C@@H]32)[C@@H]6[C@H]54 (stereo not given in full)
Result: < 0.2

Ask: Next up: C=CC[N+]12CC[C@@]34c5ccccc5N5C(=O)C[C@@H]6OCC=C(C1)[C@H](C[C@@H]32)[C@@H]6[C@H]54 (stereo not given in full)
Result: < 0.2
